Target: Mu-type opioid receptor (Homo sapiens, UniProt P35372)
Sequence (P35372 whole entry): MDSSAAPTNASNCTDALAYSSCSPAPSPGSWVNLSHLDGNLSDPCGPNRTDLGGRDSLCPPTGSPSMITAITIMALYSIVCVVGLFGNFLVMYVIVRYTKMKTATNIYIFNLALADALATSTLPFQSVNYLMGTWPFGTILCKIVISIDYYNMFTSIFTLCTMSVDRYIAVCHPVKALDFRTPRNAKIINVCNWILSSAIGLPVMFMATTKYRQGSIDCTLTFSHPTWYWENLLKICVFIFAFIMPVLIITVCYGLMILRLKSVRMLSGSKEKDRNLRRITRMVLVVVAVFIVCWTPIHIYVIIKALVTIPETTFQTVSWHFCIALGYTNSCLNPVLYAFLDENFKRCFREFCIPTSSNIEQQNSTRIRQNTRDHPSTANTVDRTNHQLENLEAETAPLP
Assay: Displacement of [3H]-DAMGO from human mu opioid receptor expressed in CHO cells after 60 mins by scintillation counting analysis
Type: cell-based
pKi: −log10 of the molar value. Non-standard residues stand in square brackets, D forms with d. Residues, ends and D or L forms follow the SMILES beside them. *: point of attachment. βGlc = OC[C@H]1O[C@@H](*)[C@H](O)[C@@H](O)[C@@H]1O; Aib = CC(C)(N)C(=O)O
# binarize pKi: threshold 8 inclusive, high side 1 (yes), low side 0 (no)

Could you tell me if the measured pKi of CC(C)C[C@H](NC(=O)[C@H](CO[C@@H]1O[C@H](CO)[C@@H](O)[C@H](O)[C@H]1O)NC(=O)[C@H](CCCCN)NC(=O)[C@H](CC(C)C)NC(=O)[C@H](C)NC(=O)[C@H](CCCCN)NC(=O)[C@H](CCC(=O)O)NC(=O)C(C)(C)NC(=O)[C@H](CC(C)C)NC(=O)[C@H](CC(N)=O)NC(=O)CNC(=O)[C@H](CC(C)C)NC(=O)[C@H](Cc1ccccc1)NC(=O)CNC(=O)[C@@H](NC(=O)[C@@H](N)Cc1ccc(O)cc1)[C@@H](C)O)C(N)=O (H-YTGFLGNL[Aib]EKALKS(βGlc)L-NH2) reaches 8 or more?
0 (no)

# iterate: CC(C)C[C@H](NC(=O)[C@H](CO[C@@H]1O[C@H](CO)[C@@H](O)[C@H](O)[C@H]1O)NC(=O)[C@H](CCCCN)NC(=O)[C@H](CC(C)C)NC(=O)[C@H](C)NC(=O)[C@H](CC(N)=O)NC(=O)[C@H](CC(N)=O)NC(=O)C(C)(C)NC(=O)[C@H](CC(C)C)NC(=O)[C@H](CC(N)=O)NC(=O)CNC(=O)CNC(=O)[C@H](Cc1ccccc1)N(C)C(=O)CNC(=O)[C@@H](C)NC(=O)[C@@H](N)Cc1ccc(O)cc1)C(N)=O
0 (no)

How about this compound: CC(C)C[C@H](NC(=O)[C@H](CO[C@@H]1O[C@H](CO)[C@@H](O)[C@H](O)[C@H]1O)NC(=O)[C@H](CCCCN)NC(=O)[C@H](CC(C)C)NC(=O)[C@H](C)NC(=O)[C@H](CCCCN)NC(=O)[C@H](CCC(=O)O)NC(=O)C(C)(C)NC(=O)[C@H](CC(C)C)NC(=O)[C@H](CC(N)=O)NC(=O)[C@@H]1CCCN1C(=O)CCNC(=O)[C@H](Cc1ccccc1)N(C)C(=O)CNC(=O)[C@@H](C)NC(=O)[C@@H](N)Cc1ccc(O)cc1)C(N)=O
1 (yes)
